In this section we review reported pEC50 values for a set of substances.
Assayed system: hGIPR (Homo sapiens)
Sequence (P48546 22-466): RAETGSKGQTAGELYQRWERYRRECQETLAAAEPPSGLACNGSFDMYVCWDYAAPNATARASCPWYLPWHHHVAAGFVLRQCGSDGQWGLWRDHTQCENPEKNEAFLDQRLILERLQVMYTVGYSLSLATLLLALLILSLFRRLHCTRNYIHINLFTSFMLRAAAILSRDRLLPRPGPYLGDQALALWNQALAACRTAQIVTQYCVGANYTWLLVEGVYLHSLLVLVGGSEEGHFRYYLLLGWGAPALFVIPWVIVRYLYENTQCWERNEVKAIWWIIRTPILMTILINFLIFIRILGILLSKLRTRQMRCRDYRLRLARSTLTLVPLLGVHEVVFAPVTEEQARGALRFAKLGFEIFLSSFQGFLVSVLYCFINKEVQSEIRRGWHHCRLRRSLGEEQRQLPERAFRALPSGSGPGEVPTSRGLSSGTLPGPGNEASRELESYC
Protocol notes: Functional cAMP activation in the presence of 0.1% casein (no HSA);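 note: intracellular cAMP rise after 30 min at 37 °C read by HTRF against a standard curve, scaled between buffer alone (0%) and top control ligand concentration (100%), four-parameter fit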
Type: cell-based
Experimental context: in the presence of 0.1% casein (no HSA); geometric mean; read-out: Relative cAMP EC50, hGIPR
pEC50: −log10 of the molar value. Starred links: 1 amine or outer side, 2 acyl side, 3 side chain; linkers in the order of their positions; H or OH if unused. Non-standard residues stand in square brackets, D forms with d. Groups on a side chain read outwards from the residue. *: point of attachment. C18 diacid = O=C(O)CCCCCCCCCCCCCCCCC(=O)*; γGlu = O=C(O)[C@H](CCC(=O)[*:2])N[*:1]; αMe4Pal = C[C@](N)(Cc1ccncc1)C(=O)O; αMeY = C[C@](N)(Cc1ccc(O)cc1)C(=O)O; 4Pal = N[C@@H](Cc1ccncc1)C(=O)O; αMeL = CC(C)C[C@](C)(N)C(=O)O; Orn = NCCC[C@H](N)C(=O)O; AEEA = NCCOCCOCC(=O)O; Aib = CC(C)(N)C(=O)O
Reported metric: pEC50

Substance | Assayed system | Endpoint value
H-Y[Aib]QGTFTSDFS[Orn][αMeL]LDKK([AEEA-γGlu-C18 diacid])AQ[Aib]AFIEWLLEGGHSSGAPPPSGS-NH2 [Example 170] | hGIPR (Homo sapiens) | 9.40
H-Y[Aib]QGTFTSD[4Pal]SQ[αMeL]LD[Orn]K([γGlu-γGlu-C18 diacid])AQ[αMe4Pal]AFIE[αMeY]LIA[Aib]GPSSGEPPPSGSEE-NH2 [Example 1094] | hGIPR (Homo sapiens) | 10.29
H-Y[Aib]QGTFTSDFS[Orn][αMeL]LDKK([AEEA-γGlu-C18 diacid])AQ[Aib]QFIEYLLAGGPSSGAPPPEGS-NH2 [Example 96] | hGIPR (Homo sapiens) | 9.34
H-Y[Aib]QGTFTSD[4Pal]SQ[αMeL]LDKK([AEEA-γGlu-C18 diacid])AQ[αMe4Pal]AFIEYLIE[Aib]GPSSGAPPPSGSE-NH2 [Example 886] | hGIPR (Homo sapiens) | 9.83
H-Y[Aib]QGTFTSD[4Pal]S[Orn][αMeL]LD[Orn]K([γGlu-γGlu-C18 diacid])AQ[αMe4Pal]EFIE[αMeY]LLEGGPSSGAPPPSGSEE-NH2 [Example 976] | hGIPR (Homo sapiens) | 9.36
H-Y[Aib]QGTFTSDFS[Orn][αMeL]LDKK([AEEA-γGlu-C18 diacid])AQ[Aib]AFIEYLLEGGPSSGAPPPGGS[AEEA]-NH2 [Example 66] | hGIPR (Homo sapiens) | 9.66

Values compiled from patent US20240270821A1.
